B1: SAM and SH3 domain-containing protein 1, residues 630 to 700; numbered along this chain, O94885 (parent)
chain: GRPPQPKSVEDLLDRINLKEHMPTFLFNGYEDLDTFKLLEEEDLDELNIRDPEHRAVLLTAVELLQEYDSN

- Variants of: B1
- assay_summary: abundance fitness (aPCA) (normalised: wild type 0, dead -1); higher = more abundant; growth selection in yeast, the domain comes from the species named
- conditions_used: Homo sapiens
quantity_kind: abundance fitness

> print(dat)
                         biopolymer.sequence  data.value
 1  GRPPQPKSVEDLLDRINLKEHMNTFLFNGYEDLDTFKLLEEEDLDELNIRDPEHRAVLLTAVELLQEYDSN [P23N]       0.102
 2  GRPPQYKSVEDLLDRINLKEHMPTFLFNGYEDLDTFKLLEEEDLDELNIRDPEHRAVLLTAVELLQEYDSN [P6Y]       0.128
 3  GRPPQPKSVEDLLPRINLKEHMPTFLFNGYEDLDTFKLLEEEDLDELNIRDPEHRAVLLTAVELLQEYDSN [D14P]      -0.834
 4  GRPPQPKSVEDLLDRINLKEHMPTFLFNGYEDLDTFKLLEEEDLDELNIRDPEHRAVLLAAVELLQEYDSN [T60A]       0.242
 5  GRPPQPKSVEDLLDRINLKEHMPTFLFNGYEDLDTFKLLEEEDLDELNIRDPEHRGVLLTAVELLQEYDSN [A56G]      -0.337
 6  GRPPQPKSVEDLLDRINLKEHMPTFLFQGYEDLDTFKLLEEEDLDELNIRDPEHRAVLLTAVELLQEYDSN [N28Q]      -0.644
 7  GRPPQPKSVEDLLDRINLKEHMPTFLFNGYEDLRTFKLLEEEDLDELNIRDPEHRAVLLTAVELLQEYDSN [D34R]      -0.465
 8  GRPPQPKSVEDLLDRINLKEHMPTFLFNGYEDLDTFKLLEEEDLDERNIRDPEHRAVLLTAVELLQEYDSN [L47R]      -0.922
 9  GRPPQPKSVEDLLDRINLKEHMPTFLFNGYEDLDTFKLLEEEDLEELNIRDPEHRAVLLTAVELLQEYDSN [D45E]      -0.276
10  GRPPQPKSVEDLLDLINLKEHMPTFLFNGYEDLDTFKLLEEEDLDELNIRDPEHRAVLLTAVELLQEYDSN [R15L]      -0.223
11  GRPPQPKSVEDLLDRINLKEHMPTFLFNGYEDLDTFSLLEEEDLDELNIRDPEHRAVLLTAVELLQEYDSN [K37S]      -0.337
12  GRPPQPKSVEDLLDRINLKEHMPTFLFNGYEDLDTFKLLEEEDLDELNIRDPEHRAVLLTAVELLQEVDSN [Y68V]      -0.038
13  GRPPQPKSVCDLLDRINLKEHMPTFLFNGYEDLDTFKLLEEEDLDELNIRDPEHRAVLLTAVELLQEYDSN [E10C]      -0.463
14  GRPPQPKSVEDLLDRINLKEHMPTFLFNGYEDLDTFKLLEEEDLDELNIRGPEHRAVLLTAVELLQEYDSN [D51G]       -0.75
15  GRPPQPKSVEDLLDRINLKEHMPTFHFNGYEDLDTFKLLEEEDLDELNIRDPEHRAVLLTAVELLQEYDSN [L26H]       -0.44
16  GRPPQPKSVEDLLDRINLKEHMPTFLFNGYEDLDTFKLLEEEFLDELNIRDPEHRAVLLTAVELLQEYDSN [D43F]       -1.05
17  GRPPQPKSVEDLLDRINLKEHMPTFLFNGYEDLDTFKLLEEEDLDEVNIRDPEHRAVLLTAVELLQEYDSN [L47V]      -0.781
18  GIPPQPKSVEDLLDRINLKEHMPTFLFNGYEDLDTFKLLEEEDLDELNIRDPEHRAVLLTAVELLQEYDSN [R2I]      -0.011
19  GRPPQPKSVEDLNDRINLKEHMPTFLFNGYEDLDTFKLLEEEDLDELNIRDPEHRAVLLTAVELLQEYDSN [L13N]      -0.802
20  GRPPQPKSVEDLLDRINLKEHMPTFLFNGIEDLDTFKLLEEEDLDELNIRDPEHRAVLLTAVELLQEYDSN [Y30I]       0.042
21  GRIPQPKSVEDLLDRINLKEHMPTFLFNGYEDLDTFKLLEEEDLDELNIRDPEHRAVLLTAVELLQEYDSN [P3I]       0.035
22  GRPPQPKSVEDLLDRINLKEHMPTFLFNGYEDLDTFKLLEEEDLDELNIRDPEHRACLLTAVELLQEYDSN [V57C]       0.107

These measurements were taken from the Human Domainome abundance scans (Beltran et al. 2025).
